- tested_on: T1, corticotropin-releasing hormone (CRH) peptide (human and mouse, UniProt P01143 145-185 (rat entry), not fully specified)
- T1 peptide: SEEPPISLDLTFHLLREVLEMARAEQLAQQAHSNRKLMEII
- assay_info: cell-based or functional assay
Quick reference for hCRHR1-Luc 0.5 nM CRH IC50 among some binders
The figure you give is taken to be in nM; do not add the unit.

Please review the following examples before continuing.
[[record]]
binder = "PR302341-21 (antibody, human IgG1, kappa, V domains shown) VH: QVQLVQSGAEVKKPGASVKVSCKASGYTFTDYFMKWVRQAPGQRLEWMGVINPNNGDIFYNQKFKGRVTITVDKSASTAYMELSSLRSEDTAVYYCARGTDRALFAYWGQGTLVTVSS VL: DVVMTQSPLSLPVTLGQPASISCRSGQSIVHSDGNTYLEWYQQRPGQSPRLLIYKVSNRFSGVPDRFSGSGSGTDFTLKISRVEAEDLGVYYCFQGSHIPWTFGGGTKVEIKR"
unit_descriptor = "nM"
value = 0.177

[[record]]
binder = "PR302341-26 (antibody, human IgG1, kappa, V domains shown) VH: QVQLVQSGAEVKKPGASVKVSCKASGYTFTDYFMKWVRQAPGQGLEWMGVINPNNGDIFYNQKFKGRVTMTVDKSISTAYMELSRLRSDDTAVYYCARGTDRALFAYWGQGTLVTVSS VL: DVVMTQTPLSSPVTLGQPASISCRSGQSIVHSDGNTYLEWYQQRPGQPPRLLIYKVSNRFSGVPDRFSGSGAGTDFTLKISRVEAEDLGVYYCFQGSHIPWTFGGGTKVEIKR"
unit_descriptor = "nM"
value = 0.273


Here is the next item to consider.
Entry PR302341-2 (antibody, human IgG1, kappa, V domains shown) VH: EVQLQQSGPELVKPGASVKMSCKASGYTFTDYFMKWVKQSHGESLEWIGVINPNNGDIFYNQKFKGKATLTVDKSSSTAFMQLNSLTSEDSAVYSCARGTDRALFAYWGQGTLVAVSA VL: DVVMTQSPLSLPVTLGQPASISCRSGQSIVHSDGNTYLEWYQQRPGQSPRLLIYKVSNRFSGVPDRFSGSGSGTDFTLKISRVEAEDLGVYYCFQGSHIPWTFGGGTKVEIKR : reported hCRHR1-Luc 0.5 nM CRH IC50 = ? 0.168
